# credit: the supplement of paper PMC10567573

The variants listed here are annotated with their protein stability index.
B1: ANKRD44 (parent)
chain: FHCIETLVTTGANVNETDDWGRTA

variants of: B1; experiment: protein stability index of a GFP-peptide fusion (GPS, HEK-293T) (PSI 1-6); higher = more stable; conditions: c terminus: a fixed tail appended;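 further: lentivirally expressed fusions sorted by FACS into six bins by GFP to DsRed ratio, PSI derived from sequencing read proportions per bin multiplied by bin number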
Please reply with the value in numeric form only.

mutationlabel=G21M numericreadout=2.04

Could you share which protein stability index value was measured for `V14M` ?
2.07

Could you share which protein stability index value was measured for `F1I` ?
3.13

Could you share which protein stability index value was measured for `G21A` ?
2.12
